- subject of test: D(2) dopamine receptor (Homo sapiens)
- protocol description: Dopamine D2 receptor (DRD2) small molecule antagonists, cell-based qHTS assay (AID 1963595)
- applied conditions: HEK293-DRD2 cAMP HTRF antagonist mode; series mostly up to 92.4 µM
Records with an inconclusive call do not appear. The source made the active and inactive calls. Calls come from the whole dose curve; as a rule, active = well fitted inhibition curve with a large enough effect in the signal ratio in the repeat runs, with a control signal flat; inconclusive = weak or mixed curves, or effect the other way; inactive = flat fitted curve, though single readings scatter; the % refers to the signal ratio.
The reply should name one outcome from class 1 (active), class 0 (inactive)

Ask: Assay outcome for `CN(C)c1ccc(C(=C2C=CC(=[N+](C)C)C=C2)c2ccccc2)cc1` : what was it?
Reply: class 1

Ask: Assay outcome for `CC(=O)c1ccc(S(=O)(=O)NC(=O)NC2CCCCC2)cc1` : what was it?
Reply: class 0

Ask: Assay outcome for CCCCCCCCCCCCCCCCCC(=O)OCC(O)CO (configuration not stated) : what was it?
Reply: class 0

Ask: Assay outcome for `C/C=C/C=C/C(=O)O` : what was it?
Reply: class 0

Ask: Assay outcome for `O=[Se](O)O` : what was it?
Reply: class 0

Ask: Assay outcome for `Oc1c(Cl)cc(Cl)c(Cl)c1Cl` : what was it?
Reply: class 0

Ask: Assay outcome for `CC(=O)OC/C=C(\C)CCC=C(C)C` : what was it?
Reply: class 0

* * *

- protocol description: cAMP Responsive Elements (CRE) small molecule antagonists, cell-based qHTS assay (AID 1963591)
- applied conditions: CRE-bla HEK293T, beta-lactamase FRET ratio; series mostly up to 92.4 µM
Records with an inconclusive call do not appear. The source made the active and inactive calls. The call rests on the fitted dose curve; in most records, active means well fitted inhibition curve with a large enough effect in the signal ratio in the repeat runs (not every such curve was filed as active); inconclusive means weak or mixed curves, or effect the other way; inactive means flat fitted curve, though single readings scatter; the % refers to the signal ratio.
The reply should name one outcome from active, inactive

Ask: Assay outcome for `CCOCCO` : what was it?
Reply: inactive

Ask: Assay outcome for C=C1C2CCC(C2)C1(C)C (stereo not given) : what was it?
Reply: inactive

Ask: Assay outcome for `CC(=O)CCc1ccccc1` : what was it?
Reply: inactive

Ask: Assay outcome for `c1ccc2c(c1)ccc1ccccc12` : what was it?
Reply: inactive

Ask: Assay outcome for CC(C)(Oc1ccc(C2CC2(Cl)Cl)cc1)C(=O)O (stereo not given) : what was it?
Reply: inactive

Ask: Assay outcome for O=C(OCC1CCC2OC2C1)C1CCC2OC2C1 (stereo not given) : what was it?
Reply: inactive

Ask: Assay outcome for `Cc1ccc(S(=O)(=O)Oc2ccc(N=Nc3ccc(-c4ccc(N=Nc5c(O)ccc6cc(S(=O)(=O)O)cc(S(=O)(=O)O)c56)c(C)c4)cc3C)cc2)cc1` : what was it?
Reply: inactive

Ask: Assay outcome for `NC(=O)N/N=C/c1ccc([N+](=O)[O-])o1` : what was it?
Reply: inactive

Ask: Assay outcome for CCCCC(CC)COC(=O)C(C#N)=C(c1ccccc1)c1ccccc1 (stereo not given) : what was it?
Reply: inactive

Ask: Assay outcome for `CC(=O)CCC(=O)O` : what was it?
Reply: inactive

Ask: Assay outcome for `CC[N+](CC)(CC(=O)Nc1c(C)cccc1C)Cc1ccccc1` : what was it?
Reply: inactive

Ask: Assay outcome for `COc1ccc(NC(C)=O)cc1N` : what was it?
Reply: inactive

Ask: Assay outcome for `N[C@@H](Cc1cc(I)c(Oc2cc(I)c(O)c(I)c2)c(I)c1)C(=O)O` : what was it?
Reply: inactive

Ask: Assay outcome for `Nc1ncn([C@@H]2O[C@H](CO)[C@@H](O)[C@H]2O)c(=O)n1` : what was it?
Reply: active

Ask: Assay outcome for `COC(=O)CCCCC(=O)OC` : what was it?
Reply: inactive

* * *

- protocol description: p53 small molecule agonists, cell-based qHTS assay with rat liver microsomes (AID 1963578); note: % is set by controls: 0 for no effect and ±100 for the full control effect
- applied conditions: HCT-116 p53RE-bla, beta-lactamase ratio, 16 h; series mostly up to 66 µM
Records with an inconclusive call do not appear. Active and inactive are the calls of the source. The call rests on the fitted dose curve.
reported endpoint: outcome

Look over these answered cases.
>>> recorded_value("O=c1c(O)c(-c2ccc(O)cc2)oc2cc(O)cc(O)c12")
"inactive"
>>> recorded_value("NC(N)=NC(N)=NCCc1ccccc1")
"inactive"
>>> recorded_value("CC(=O)OC[C@H]1O[C@@](COC(C)=O)(O[C@H]2O[C@H](COC(C)=O)[C@@H](OC(C)=O)[C@H](OC(C)=O)[C@H]2OC(C)=O)[C@@H](OC(C)=O)[C@@H]1OC(C)=O")
"inactive"
>>> recorded_value("CC1(C)O[C@@H]2[C@@H](CO[C@@]3(COS(N)(=O)=O)OC(C)(C)O[C@@H]23)O1")
"inactive"
>>> recorded_value("CC/C=C(\\C(=O)N[C@@H]1C(=O)N2C(C(=O)OCOC(=O)C(C)(C)C)=C(COC(N)=O)CS[C@H]12)c1csc(N)n1")
"inactive"

Ask: Look up outcome: Cc1ccccc1C(OCCN(C)C)c1ccccc1 (centres undefined)
Reply: inactive

Ask: Look up outcome: `CC1=CC(=O)CC(C)(C)C1`
Reply: inactive

Ask: Look up outcome: `Cc1cc(C)nc(NS(=O)(=O)c2ccc(N)cc2)n1`
Reply: inactive

Ask: Look up outcome: COCC(C)N (centres undefined)
Reply: inactive

Ask: Look up outcome: `O=C(OCCOCCOC(=O)c1ccccc1)c1ccccc1`
Reply: inactive

Ask: Look up outcome: `Cc1ccc([N+](=O)[O-])cc1S(=O)(=O)O`
Reply: inactive

Ask: Look up outcome: `C=C(C)OC(C)=O`
Reply: inactive

Ask: Look up outcome: `CC1(C)[C@@H]2CC[C@@]1(C)C(=O)C2`
Reply: inactive

Ask: Look up outcome: `OC[C@H]1O[C@H](O[C@]2(CCl)O[C@H](CCl)[C@@H](O)[C@@H]2O)[C@H](O)[C@@H](O)[C@H]1Cl`
Reply: inactive

Ask: Look up outcome: CCC(C)C=O (centres undefined)
Reply: inactive

Ask: Look up outcome: `NC(=O)c1cnccn1`
Reply: inactive

Ask: Look up outcome: `CCOCCO`
Reply: inactive

* * *

- protocol description: p53 small molecule agonists, cell-based qHTS assay with human liver microsomes: qHTS cell viability counter screen (AID 1963579); note: % is set by controls: 0 for no effect and ±100 for the full control effect; nearly all actives have a fitted effect of over 45% in size
- applied conditions: p53RE-bla HCT-116 viability, ATP luminescence, 16 h, HLM; series mostly up to 66 µM
Results filed as inconclusive are left out. Activity calls are given as the source filed them. Calls come from the whole dose curve.
reported endpoint: outcome

Look over these answered cases.
>>> recorded_value("CC(=O)/C=C/C1=C(C)CCCC1(C)C")
"inactive"
>>> recorded_value("CC(C)[N+](C)(CCOC(=O)C1c2ccccc2Oc2ccccc21)C(C)C")
"inactive"
>>> recorded_value("CCCCCCCCCCC(CO)CCCCCCCC (stereo unspecified)")
"inactive"
>>> recorded_value("CN(C)CCCN")
"inactive"
>>> recorded_value("O=Cc1ccc(CO)o1")
"inactive"
>>> recorded_value("CCCCCCCCCC(=O)O")
"inactive"

Ask: Look up outcome: CCOc1ccc(NC(=O)CC(C)O)cc1 (stereo unspecified)
Reply: inactive

Ask: Look up outcome: `c1ccc2c(c1)Cc1ccccc1-2`
Reply: inactive

Ask: Look up outcome: `CC(=O)Oc1ccc(C)cc1`
Reply: inactive

Ask: Look up outcome: `c1ccc2scnc2c1`
Reply: inactive

Ask: Look up outcome: `CC(=O)OCc1ccc2c(c1)OCO2`
Reply: inactive

Ask: Look up outcome: `CC(=O)Oc1ccccc1C(=O)O`
Reply: inactive

Ask: Look up outcome: `CCCCCCCCCCCCCCCO`
Reply: inactive

Ask: Look up outcome: `CS(=O)(=O)c1ccc([C@@H](O)[C@@H](CO)NC(=O)C(Cl)Cl)cc1`
Reply: inactive

Ask: Look up outcome: `O=C(O)C(=O)O`
Reply: inactive

Ask: Look up outcome: `C=CCOC(=O)c1ccccc1C(=O)OCC=C`
Reply: inactive

Ask: Look up outcome: `CN1C(=O)CC[C@H]1c1cccnc1`
Reply: inactive

* * *

- protocol description: G protein-coupled receptor (GPCR) small molecule agonists, calcium flux assay: HEK293 wild type cell line counter screen (AID 1920065); note: % is set by controls: 0 for no effect and ±100 for the full control effect
- applied conditions: HEK293 WT calcium flux, fluorescence, agonist mode; series mostly up to 57.6 µM
Activity calls are given as the source filed them. Calls follow the shape of the full dose curve.
reported endpoint: outcome

Look over these answered cases.
>>> recorded_value("NC(N)=S")
"inactive"
>>> recorded_value("O=Cc1ccccc1O")
"inactive"
>>> recorded_value("CCC(O)OC(O)CC (stereo not drawn)")
"inactive"
>>> recorded_value("O=C(O)Cc1cccc2ccccc12")
"inactive"
>>> recorded_value("COC1=CC(=O)C[C@@H](C)[C@]12Oc1c(Cl)c(OC)cc(OC)c1C2=O")
"inactive"

Ask: Look up outcome: `CC(C)(CO)CO`
Reply: inactive

Ask: Look up outcome: `Cn1c(=O)c2[nH]cnc2n(C)c1=O`
Reply: inactive

Ask: Look up outcome: `CC(=O)Nc1ccc2c(c1)Cc1cc(NC(C)=O)ccc1-2`
Reply: inactive

* * *

- protocol description: Nuclear factor erythroid 2-related factor 2/antioxidant responsive element (Nrf2/ARE) small molecule agonists: qHTS cell viability counter screen in human keratinocytes (AID 1919968); note: % is set by controls: 0 for no effect and ±100 for the full control effect; nearly all actives have a fitted effect of over 55% in size
- applied conditions: KeratinoSens HaCaT ARE cells viability, CellTiter-Fluor, 24 h; series mostly up to 92.4 µM
Records with an inconclusive call do not appear. Activity calls are given as the source filed them. The call rests on the fitted dose curve; in most records, active means well fitted cell-killing curve with a large enough effect in the repeat runs; inconclusive means weak or mixed curves, or effect the other way; inactive means flat fitted curve, though single readings scatter.
reported endpoint: outcome

Look over these answered cases.
>>> recorded_value("Cc1ccc(C(C)C)cc1")
"inactive"
>>> recorded_value("C=CC(=O)OCCC(=O)O")
"inactive"
>>> recorded_value("O=c1[nH]cnc2c1ncn2[C@H]1CC[C@@H](CO)O1")
"inactive"
>>> recorded_value("O=S1(=O)CCCO1")
"inactive"
>>> recorded_value("C=Cc1cccc(C)c1")
"inactive"

Ask: Look up outcome: `O=[N+]([O-])c1cc(C(F)(F)F)ccc1Cl`
Reply: inactive

Ask: Look up outcome: `Cn1c([N+](=O)[O-])cnc1COC(N)=O`
Reply: inactive

Ask: Look up outcome: `Cc1cccc([N+](=O)[O-])c1C`
Reply: inactive
